# testedTarget: human PAH with the R408W mutation (Homo sapiens, UniProt P00439, R408W)
# Construct: expressed in transfected cells
# methodDescription: Cell Based Phenylalanine Flux Assay
# condition: A375 cells expressing human R408W PAH; 24 hrs compound incubation; 13C-Tyrosine by LC-MS; average where tested multiple times; read-out: AC50
endpointLabel: AC50

Known results for compounds:
| compound | AC50 |
| --- | --- |
| O=C(c1nnc(-c2ccccc2)o1)N1CCc2[nH]cnc2[C@@H]1c1nc2ccccc2s1 [Example 1418] | 1 to 5 µM |
| O=C(N1CC(F)C1)N1CCc2[nH]cnc2[C@@H]1c1nc2ccccc2s1 [Example 1690] | 1 to 5 µM |
| Cn1cc(-c2nnc(C(=O)N3CCc4[nH]cnc4[C@@H]3c3nc4c(F)cccc4s3)o2)cn1 [Example 1727] | 1 to 5 µM |

Q: Under human PAH with the R408W mutation (Homo sapiens, UniProt P00439, R408W), report AC50 for O=C(c1cncs1)N1CCc2[nH]cnc2[C@H]1c1nc2ccccc2s1 [Example 1059]
Result: < 0.5 µM

Q: Under human PAH with the R408W mutation (Homo sapiens, UniProt P00439, R408W), report AC50 for O=C(c1nnc(-c2ccccn2)o1)N1CCc2[nH]cnc2[C@H]1c1nc2ccc(F)cc2s1 [Example 1720]
Result: < 0.5 µM

Q: Under human PAH with the R408W mutation (Homo sapiens, UniProt P00439, R408W), report AC50 for O=C(c1oc(COC(F)(F)F)nc1C(F)F)N1CCc2[nH]cnc2[C@@H]1c1nc2ccccc2s1 [Example 1832]
Result: 1 to 5 µM

Q: Under human PAH with the R408W mutation (Homo sapiens, UniProt P00439, R408W), report AC50 for O=C(Cc1nccs1)N1CCc2[nH]cnc2[C@@H]1c1nc2ccccc2s1 [Example 1038]
Result: > 5 µM

Q: Under human PAH with the R408W mutation (Homo sapiens, UniProt P00439, R408W), report AC50 for O=C(c1nnc(-c2ccc(C(F)(F)F)cn2)o1)N1CCc2[nH]cnc2[C@H]1c1nc2ccccc2s1 [Example 1830]
Result: 0.5 to 1 µM

* * *

# testedTarget: human PAH with the R408W mutation (Homo sapiens, UniProt P00439, R408W)
# Construct: expressed in transfected cells
# methodDescription: Cell Based Phenylalanine Flux Assay
# condition: A375 cells expressing human R408W PAH; 24 hrs with compound; 13C-Tyrosine by LC-MS; average where tested multiple times; read-out: AC50
endpointLabel: AC50

Known results for molecules:
| molecule | AC50 |
| --- | --- |
| O=C(CCc1nccs1)N1CCc2[nH]cnc2C1c1nc2cc(F)ccc2s1 (stereo not drawn) | > 5 µM |
| O=C(C1CC1F)N1CCc2[nH]cnc2C1c1nc2ccccc2s1 (stereo not drawn) | > 5 µM |
| O=C(c1nc2ccccc2s1)N1CCc2[nH]cnc2C1c1nc2cccc(F)c2s1 (stereo not drawn) | > 5 µM |

Okay, next one:
Q: Provide AC50 value for the following molecule: O=C(CCc1ccc(F)cc1)N1CCc2[nH]cnc2C1c1nc2ccccc2[nH]1 (stereo not drawn)
Result: 1 to 5 µM

* * *

# testedTarget: human PAH with the R408W mutation (Homo sapiens, UniProt P00439, R408W)
# Construct: expressed in transfected cells
# methodDescription: Cell Based Phenylalanine Flux Assay
# condition: A375 cells expressing human R408W PAH; 24 hrs with compound; 13C-Tyrosine by LC-MS; average where tested multiple times; read-out: AC50
endpointLabel: AC50

Known results for molecules:
| molecule | AC50 |
| --- | --- |
| Cn1nc(C2CC2)nc1C(=O)N1CCc2[nH]cnc2C1c1nc2ccccc2s1 (stereo not drawn) | 1 to 5 µM |
| O=C(c1oc(-c2ccccc2)nc1-c1ccccc1)N1CCc2[nH]cnc2C1c1nc2ccccc2s1 (stereo not drawn) | 1 to 5 µM |
| Cc1nc(NC2CC2)oc1C(=O)N1CCCc2[nH]cnc2C1c1nc2ccccc2s1 (stereo not drawn) | > 5 µM |
| O=C(c1ncc[nH]1)N1CCc2[nH]cnc2C1c1nc2ccccc2[nH]1 (stereo not drawn) | > 5 µM |
| O=C(c1cc2ccccn2c1)N1CCc2[nH]cnc2[C@H]1c1nc2ccccc2s1 (single isomer, unassigned) | 1 to 5 µM |
| O=C(Cc1coc(C(F)F)n1)N1CCc2[nH]cnc2C1c1nc2ccccc2s1 (stereo not drawn) | > 5 µM |
| O=C(CCc1cscn1)N1CCc2[nH]cnc2[C@H]1c1nc2ccccc2[nH]1 | 1 to 5 µM |
| Cc1ccc2c(C(=O)N3CCc4[nH]cnc4C3c3nc4ccc(Cl)cc4[nH]3)cnn2c1 (stereo not drawn) | 1 to 5 µM |

Q: Provide AC50 value for the following molecule: Cn1nc(C2CC2)nc1C(=O)N1CCc2[nH]cnc2C1c1nc2c(F)cccc2s1 (stereo not drawn)
Result: 1 to 5 µM

Q: Provide AC50 value for the following molecule: O=C(c1ccno1)N1CCc2[nH]cnc2C1c1nc2cccc(F)c2s1 (stereo not drawn)
Result: 1 to 5 µM

Q: Provide AC50 value for the following molecule: c1ccc2sc(C3c4nc[nH]c4CCN3CC3CC3)nc2c1 (stereo not drawn)
Result: > 5 µM

Q: Provide AC50 value for the following molecule: O=C(c1cnn2ccc(Cl)cc12)N1CCc2[nH]cnc2C1c1nc2ccc(Cl)cc2[nH]1 (stereo not drawn)
Result: 1 to 5 µM

* * *

# testedTarget: human PAH with the R408W mutation (Homo sapiens, UniProt P00439, R408W)
# Construct: expressed in transfected cells
# methodDescription: Cell Based Phenylalanine Flux Assay
# condition: A375 cells expressing human R408W PAH; 24 hrs with compound; 13C-Tyrosine by LC-MS; average where tested multiple times; read-out: AC50
Let's look at some compounds and their measured AC50.

Known results for compounds:
| compound | AC50 |
| --- | --- |
| Cc1nc(C(=O)N2CCc3[nH]cnc3C2c2nc3ccccc3s2)no1 (stereo not shown) | > 5 µM |
| Cc1ncoc1C(=O)N1CC2(CC2)c2[nH]cnc2C1c1nc2c(F)cccc2s1 (stereo not shown) | > 5 µM |
| O=C(Cc1nccs1)N1CCc2[nH]cnc2C1c1nc2cc(F)ccc2s1 (stereo not shown) | > 5 µM |
| Cn1nc(C(N)=O)cc1C(=O)N1CCc2[nH]cnc2C1c1nc2c(F)cccc2s1 (stereo not shown) | 1 to 5 µM |
| N#Cc1ccn2ncc(C(=O)N3CCc4[nH]cnc4C3c3nc4ccc(Br)cc4[nH]3)c2c1 (stereo not shown) | 1 to 5 µM |
| Cn1cnc(C(=O)N2CCc3[nH]cnc3C2c2nc3c(F)cccc3s2)n1 (stereo not shown) | > 5 µM |

Q: Provide AC50 value for the following compound: O=C(c1cnn2cc(Cl)ccc12)N1CCc2[nH]cnc2C1c1nc2ccccc2[nH]1 (stereo not shown)
Result: > 5 µM

Q: Provide AC50 value for the following compound: COCc1cc(C(=O)N2CCc3[nH]cnc3C2c2nc3c(F)cccc3s2)[nH]n1 (stereo not shown)
Result: 1 to 5 µM

Q: Provide AC50 value for the following compound: O=C(c1nc2ccccc2s1)N1CCc2[nH]cnc2C1c1nc2ccc(F)cc2s1 (stereo not shown)
Result: 1 to 5 µM

* * *

# testedTarget: human PAH with the R408W mutation (Homo sapiens, UniProt P00439, R408W)
# Construct: expressed in transfected cells
# methodDescription: Cell Based Phenylalanine Flux Assay
# condition: A375 cells expressing human R408W PAH; 24 hrs compound incubation; 13C-Tyrosine by LC-MS; average where tested multiple times; read-out: AC50
Let's look at some compounds and their measured AC50.

| molecularString | AC50 |
| --- | --- |
| CC(C)(C)CCC(=O)N1CCc2[nH]cnc2[C@@H]1c1nc2ccc(Br)cc2[nH]1 | 1000 to 5000 nM |

Q: Provide AC50 value for the following compound: Cc1nc([C@H](C)O)oc1C(=O)N1CCc2[nH]cnc2[C@H]1c1nc2c(F)cccc2s1
Result: 500 to 1000 nM

Q: Provide AC50 value for the following compound: O=C(c1cnn(-c2ccc(F)cc2)c1)N1CCc2[nH]cnc2[C@H]1c1nc2ccccc2s1
Result: < 500 nM

Q: Provide AC50 value for the following compound: CC(C)(F)c1ncc(C(=O)N2CCc3[nH]cnc3[C@H]2c2nc3c(F)cccc3s2)s1
Result: < 500 nM

Q: Provide AC50 value for the following compound: CC(C)(C)c1ncc(C(=O)N2CCc3[nH]cnc3[C@@H]2c2nc3ccccc3s2)s1
Result: 1000 to 5000 nM

Q: Provide AC50 value for the following compound: CC(C)(F)c1nnc(C(=O)N2CCc3[nH]cnc3[C@H]2c2nc3c(F)cccc3s2)o1
Result: < 500 nM

* * *

Let's look at some compounds and their measured AC50.
# testedTarget: human PAH with the R408W mutation (Homo sapiens, UniProt P00439, R408W)
# Construct: expressed in transfected cells
# Sequence (P00439 1-452 R408W): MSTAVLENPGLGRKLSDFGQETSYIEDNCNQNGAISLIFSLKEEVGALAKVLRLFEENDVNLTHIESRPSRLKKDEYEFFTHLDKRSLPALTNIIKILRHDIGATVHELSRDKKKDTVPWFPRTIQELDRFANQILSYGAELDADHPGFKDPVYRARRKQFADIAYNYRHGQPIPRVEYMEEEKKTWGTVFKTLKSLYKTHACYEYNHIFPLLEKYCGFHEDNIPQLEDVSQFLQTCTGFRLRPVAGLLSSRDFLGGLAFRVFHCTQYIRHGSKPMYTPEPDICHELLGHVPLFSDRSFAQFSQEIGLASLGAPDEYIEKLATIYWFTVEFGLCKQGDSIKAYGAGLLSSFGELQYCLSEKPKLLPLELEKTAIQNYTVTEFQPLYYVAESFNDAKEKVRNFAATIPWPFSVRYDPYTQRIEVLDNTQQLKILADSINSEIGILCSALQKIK
# methodDescription: Cell Based Phenylalanine Flux Assay
# condition: A375 cells expressing human R408W PAH; 24 hrs with compound; 13C-Tyrosine by LC-MS; average where tested multiple times; read-out: AC50

Known results for compounds:
| compound | AC50 |
| --- | --- |
| O=C(c1cnn2cc(Cl)ccc12)N1CCc2[nH]cnc2C1c1nc2ccc(F)cc2s1 (stereo not drawn) | 1 to 5 µM |
| CS(=O)(=O)N1CC(C(=O)N2CCc3[nH]cnc3C2c2nc3ccccc3s2)C1 (stereo not drawn) | > 5 µM |

Q: Provide AC50 value for the following compound: Cc1nc(-c2ccccn2)c(C(=O)N2CCc3[nH]cnc3C2c2nc3ccccc3s2)o1 (stereo not drawn)
Result: > 5 µM

Q: Provide AC50 value for the following compound: O=C(c1cnn2ccc(F)cc12)N1CCc2[nH]cnc2C1c1nc2ccc(Br)cc2[nH]1 (stereo not drawn)
Result: 1 to 5 µM

Q: Provide AC50 value for the following compound: O=C(c1cnn2cc(CCc3ccccc3)ccc12)N1CCc2[nH]cnc2C1c1nc2ccccc2s1 (stereo not drawn)
Result: 1 to 5 µM

Q: Provide AC50 value for the following compound: Cc1nnc(CCC(=O)N2CCc3nc[nH]c3C2c2nc3ccc(F)cc3s2)s1 (stereo not drawn)
Result: 1 to 5 µM

Numbers sourced from patent US20250171438A1.
